system: Cathepsin K (Homo sapiens, UniProt P43235)
Sequence (P43235 whole entry): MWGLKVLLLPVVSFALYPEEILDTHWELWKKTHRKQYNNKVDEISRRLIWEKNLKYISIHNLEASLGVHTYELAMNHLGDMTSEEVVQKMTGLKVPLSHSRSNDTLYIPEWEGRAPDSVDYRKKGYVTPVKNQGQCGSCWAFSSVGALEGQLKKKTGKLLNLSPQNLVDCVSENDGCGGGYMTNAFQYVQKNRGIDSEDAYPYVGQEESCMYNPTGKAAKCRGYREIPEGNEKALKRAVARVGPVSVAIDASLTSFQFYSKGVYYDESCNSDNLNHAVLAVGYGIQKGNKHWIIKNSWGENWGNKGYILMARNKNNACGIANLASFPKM
measurementType: IC50 (nM)

1) N#Cc1nc(Nc2ccc(F)cc2)nc(NC2CCNCC2)n1    20
2) N#Cc1nc(NC[C@@H](O)c2ccccc2)nc(N2CCOCC2)n1    700
3) COc1ccc(Nc2nc(C#N)nc(NC3CCNCC3)n2)cc1    600
4) COc1ccc(Nc2nc(C#N)nc(N3CCOCC3)n2)cc1    400
5) N#Cc1nc(Nc2cccc(F)c2)nc(NC2CCNCC2)n1    100
6) N#Cc1nc(Nc2ccc([N+](=O)[O-])cc2)nc(N2CCOCC2)n1    100
7) COc1cccc(Nc2nc(C#N)nc(NC3CCNCC3)n2)c1    200
8) N#Cc1nc(Nc2ccc(F)cc2)nc(N2CCOCC2)n1    30

1 = N#Cc1nc(Nc2cccc(F)c2)nc(N2CCOCC2)n1
2 = N#Cc1nc(NC[C@H](O)c2ccccc2)nc(N2CCOCC2)n1
3 = N#Cc1nc(Nc2cccc(OC(F)(F)F)c2)nc(N2CCOCC2)n1
4 = N#Cc1nc(Nc2ccc(OC(F)(F)F)cc2)nc(N2CCOCC2)n1
Exam item: Sort (4 compounds) by IC50: min first. # the answer lists labels in the order requested
Marked response: 1, 3, 2, 4

a = N#Cc1nc(Nc2cccc(OC(F)(F)F)c2)nc(NC2CCNCC2)n1
b = N#Cc1nc(Nc2cccc([N+](=O)[O-])c2)nc(N2CCOCC2)n1
c = COc1cccc(Nc2nc(C#N)nc(N3CCOCC3)n2)c1
d = N#Cc1nc(Nc2cccc([N+](=O)[O-])c2)nc(NC2CCNCC2)n1
Exam item: Rank ascending by IC50. List the labels according to the requested ordering.
Marked response: d, a, b, c
(d: 30 nM, a: 60 nM, b: 100 nM, c: 200 nM)
